procedure text: Binding affinity to FAM-TWJ-TAMRA DNA (unknown origin) assessed as change in melting temperature at 1 uM after 30 mins in presence of 3 uM ds26 DNA by FRET assay
value kind: ΔTm

Look over these answered cases.
INSERT INTO assay_data (smiles_str, value) VALUES
  ('c1cc2nc3ccc4cc3cc2cc1CNCCOCCNCc1ccc2nc3ccc(cc3cc2c1)CNCCOCCNC4', '20.4 °C'),
  ('COCCOCCOCC[n+]1ccc(-c2c3nc(c(-c4cc[n+](CCOCCOCCOC)cc4)c4ccc([nH]4)c(-c4cc[n+](CCOCCOCCOC)cc4)c4nc(c(-c5cc[n+](CCOCCOCCOC)cc5)c5ccc2[nH]5)C=C4)C=C3)cc1', '7 °C');

Let us examine a further case.
Per the records, this molecule ( c1cc2ccc3cc2cc1CNCCNCCNCc1ccc2ccc(cc2c1)CNCCNCCNC3 ) has ΔTm equal to < 5 °C
